The reported numbers originate from patent US20210134398A1.

So I've got a bunch of molecules here, and I need their Stimulated ATPase values.
molecular target: Cysteineless Mouse MDR3 P-glycoprotein (Mus musculus, UniProt P21447, C1070A/C1121A/C1223A/C133A/C427A/C638A/C669A/C713A/C952A); construct: made in house; host or cells: Pichia pastoris; experiment: ATPase activity assay (basal and verapamil-stimulated), purified P-gp in mixed micelles; format: biochemical; details: in the presence of verapamil; ± standard deviation
Sequence (P21447 whole entry C133A/C427A/C638A/C669A/C713A/C952A/C1070A/C1121A/C1223A): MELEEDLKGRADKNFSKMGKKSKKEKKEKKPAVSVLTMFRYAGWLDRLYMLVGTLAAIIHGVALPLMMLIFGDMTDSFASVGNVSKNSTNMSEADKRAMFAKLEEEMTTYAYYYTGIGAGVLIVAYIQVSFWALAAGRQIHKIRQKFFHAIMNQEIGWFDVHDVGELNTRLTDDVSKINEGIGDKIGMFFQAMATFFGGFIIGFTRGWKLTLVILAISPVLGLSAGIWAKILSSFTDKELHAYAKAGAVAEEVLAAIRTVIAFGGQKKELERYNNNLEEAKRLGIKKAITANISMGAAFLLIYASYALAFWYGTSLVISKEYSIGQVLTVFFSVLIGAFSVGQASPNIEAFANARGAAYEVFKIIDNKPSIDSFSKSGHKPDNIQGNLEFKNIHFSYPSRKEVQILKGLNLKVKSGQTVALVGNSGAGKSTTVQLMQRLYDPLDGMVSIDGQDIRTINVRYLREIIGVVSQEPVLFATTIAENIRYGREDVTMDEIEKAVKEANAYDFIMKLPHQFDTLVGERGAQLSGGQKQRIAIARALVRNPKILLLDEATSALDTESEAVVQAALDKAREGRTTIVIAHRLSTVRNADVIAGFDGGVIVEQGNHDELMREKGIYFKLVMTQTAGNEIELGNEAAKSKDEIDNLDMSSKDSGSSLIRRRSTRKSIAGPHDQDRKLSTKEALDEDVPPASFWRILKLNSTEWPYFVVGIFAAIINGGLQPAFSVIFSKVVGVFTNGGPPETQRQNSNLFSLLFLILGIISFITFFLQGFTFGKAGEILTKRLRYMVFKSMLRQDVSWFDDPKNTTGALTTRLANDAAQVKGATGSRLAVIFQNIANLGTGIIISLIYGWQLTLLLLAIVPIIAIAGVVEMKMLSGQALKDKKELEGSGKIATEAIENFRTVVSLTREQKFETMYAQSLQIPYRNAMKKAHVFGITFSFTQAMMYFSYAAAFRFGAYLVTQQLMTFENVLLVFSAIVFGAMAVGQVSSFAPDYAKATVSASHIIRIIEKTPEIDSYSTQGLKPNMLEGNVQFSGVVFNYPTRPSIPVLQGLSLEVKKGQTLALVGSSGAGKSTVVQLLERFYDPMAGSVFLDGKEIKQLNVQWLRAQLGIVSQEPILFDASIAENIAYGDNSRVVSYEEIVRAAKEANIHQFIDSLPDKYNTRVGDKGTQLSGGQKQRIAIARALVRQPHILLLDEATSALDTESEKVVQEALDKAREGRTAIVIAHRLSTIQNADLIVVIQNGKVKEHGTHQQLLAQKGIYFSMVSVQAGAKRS

Cc1cc(C)c(-c2cc(NC(=O)CSCC(=O)N3c4ccccc4CCc4ccccc43)n(-c3ccccc3)n2)cc1C [29-227]; 50 ± 2 % of DMSO
Cc1cc(C)c(-c2cc(NC(=O)CSCC(=O)NC34CC5CC(CC(C5)C3)C4)n(-c3ccccc3)n2)cc1C [29-278]; 41 ± 7 % of DMSO
Cc1cc(C)c(-c2cc(NC(=O)CSCC(=O)NCc3ccc(F)cc3)n(-c3ccccc3)n2)cc1C [29-286]; 98 ± 2 % of DMSO
Cc1cc(C)c(-c2cc(NC(=O)CSc3nnc4c(n3)[nH]c3ccccc34)n(-c3ccccc3)n2)cc1C [29-541]; 68 ± 7 % of DMSO
Cc1cc(C)c(-c2cc(NC(=O)CSCC(=O)NC(c3ccccc3)c3ccccc3)n(-c3ccccc3)n2)cc1C [29-280]; 116 ± 4 % of DMSO

Quick request: Stimulated ATPase for each listed item, please.
1. Cc1cc(C)c(-c2cc(NC(=O)CSCC(=O)Nc3ccc4ncsc4c3)n(-c3ccccc3)n2)cc1C [29-255]
2. Cc1cc(C)c(-c2cc(NC(=O)CSc3nnc(C4CC4)[nH]3)n(-c3ccccc3)n2)cc1C [compound 29, reference compound]
3. COc1cc(NC(=O)CSCC(=O)Nc2cc(-c3cc(C)c(C)cc3C)nn2-c2ccccc2)cc(OC)c1OC [29-238]
4. Cc1cc(C)c(-c2cc(NC(=O)CSCC(=O)Nc3ccc4ccccc4c3)n(-c3ccccc3)n2)cc1C [29-231]
5. Cc1cc(C)c(-c2cc(NC(=O)CSc3cccc(NC(=O)c4cncc(Br)c4)c3)n(-c3ccccc3)n2)cc1C [29-551]

-- reply
123 ± 15 % of DMSO
49 ± 2 % of DMSO
194 ± 22 % of DMSO
141 ± 18 % of DMSO
62 ± 5 % of DMSO
